- Test system: HIV-1 (strain IIIB)
- measurement_protocol: Antiviral activity assay in MT4 cells (propidium iodide based)
- Type: cell-based
- test_context: Human immunodeficiency virus 1, IIIB; wild type HIV-1 virus, MT4 cells; read-out: Wildtype virus - IC50
pIC50: −log10 of the molar value.
observed_property: pIC50

CC(C)CN(C[C@@H](O)[C@H](Cc1ccc(OCc2ccc(-c3ccccc3C#N)cc2)cc1)NC(=O)O[C@H]1CO[C@H]2OCC[C@H]21)S(=O)(=O)c1ccc2c(c1)OCO2 [Compound 392]: 8.00 to 9.00
CC(C)CN(C[C@@H](O)[C@H](Cc1ccc(OCc2cccc(C#N)c2)cc1)NC(=O)O[C@H]1CO[C@H]2OCC[C@H]21)S(=O)(=O)c1cccc(N)c1 [Compound 289]: 8.00 to 9.00
CC(C)(CCCC#N)CN(C[C@@H](O)[C@H](Cc1ccc(OCc2ccccc2)cc1)NC(=O)O[C@H]1CO[C@H]2OCC[C@H]21)S(=O)(=O)c1ccc2c(c1)OCO2 [Compound 305]: 8.00 to 9.00
CC(C)(CCCC#N)CN(C[C@@H](O)[C@H](Cc1ccc(OCc2ccccc2)cc1)NC(=O)OC1COCOC1)S(=O)(=O)c1ccc2c(c1)OCO2 [Compound 306]: 7.00 to 8.00
CNC(=O)OCCCC(C)(C)CN(C[C@@H](O)[C@H](Cc1ccc(OCc2ccccc2)cc1)NC(=O)OC1COCOC1)S(=O)(=O)c1ccc2c(c1)OCO2 [Compound 363]: 7.00 to 8.00

----------
Entries annotated with measured IC50
- Tested on: EP13 multi protease inhibitor resistant virus
- measurement_protocol: Anti-viral activity against resistant virus EP13 in MT4 cells
- Assay type: cell-based, HIV-1
- test_context: EP13 multi protease inhibitor resistant virus, MT4 cells; read-out: EP13 mutant IC50
observed_property: IC50

CC(=O)NCCCOc1ccc(C[C@H](NC(=O)O[C@H]2CO[C@H]3OCC[C@H]32)[C@H](O)CN(CC(C)C)S(=O)(=O)c2ccc3c(c2)OCO3)cc1: 1 to 10 nM
CC(C)CN(C[C@@H](O)[C@H](Cc1ccc(OCCNC(=O)N(C)C)cc1)NC(=O)O[C@H]1CO[C@H]2OCC[C@H]21)S(=O)(=O)c1ccc2c(c1)OCO2: 1 to 10 nM
CC(C)CN(C[C@@H](O)[C@H](Cc1ccc(OCCCN2CCCC2)cc1)NC(=O)O[C@H]1CO[C@H]2OCC[C@H]21)S(=O)(=O)c1ccc2c(c1)OCO2: 1 to 10 nM

----------
- System: EP13 multi protease inhibitor resistant virus
- measurement_protocol: Anti-viral activity against resistant virus EP13 in MT4 cells
- Format: cell-based, HIV-1
- test_context: EP13 multi protease inhibitor resistant virus, MT4 cells; read-out: EP13 mutant IC50
pIC50: −log10 of the molar value.
Entries annotated with measured pIC50
observed_property: pIC50

CC(C)CN(C[C@@H](O)[C@H](Cc1ccc(OCCc2ccc(F)cc2)cc1)NC(=O)O[C@H]1CO[C@H]2OCC[C@H]21)S(=O)(=O)c1ccc2c(c1)OCO2 [Compound 205]: 7.00 to 8.00
CC(=O)NCCCCOc1ccc(C[C@H](NC(=O)O[C@H]2CO[C@H]3OCC[C@H]32)[C@H](O)CN(CC(C)C)S(=O)(=O)c2ccc3c(c2)OCO3)cc1 [Compound 230]: 8.00 to 9.00
CC(C)CN(C[C@@H](O)[C@H](Cc1ccc(OCc2ccc(F)cc2)cc1)NC(=O)O[C@H]1CO[C@H]2OCC[C@H]21)S(=O)(=O)c1ccc2c(c1)OCO2 [Compound 371]: 8.00 to 9.00
Cc1nc(COc2ccc(C[C@H](NC(=O)O[C@H]3CO[C@H]4OCC[C@H]43)[C@H](O)CN(CC(C)C)S(=O)(=O)c3ccc4c(c3)OCO4)cc2)cs1 [Compound 368]: > 9.00
